B1: KRT18 (parent)
chain: RAQYDELARKNREELDKYWSQQIE

# Variants of: B1
# ASSAY_NAME: protein stability index of a GFP-peptide fusion (GPS, HEK-293T) (PSI 1-6); higher = more stable;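 further: lentivirally expressed fusions sorted by FACS into six bins by GFP to DsRed ratio, PSI derived from sequencing read proportions per bin multiplied by bin number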
# REPORTED_CONDITIONS: c terminus: a fixed tail appended
Parameter protein stability index: see the listing below.
Respond with the number and no other words.

Look up and state reported protein stability index for RAQYDELARKNREELDKAWSQQIE [Y18A] 4.62

Report protein stability index for RAIYDELARKNREELDKYWSQQIE [Q3I] 2.44

Quickly give me recorded protein stability index for RAQYDELARKNREELDKYWSQMIE [Q22M] 2.67

Output measured protein stability index for this item: RAQYDELARFNREELDKYWSQQIE [K10F] 3.34

Could you please provide reported protein stability index for RAQGDELARKNREELDKYWSQQIE [Y4G] ? Thanks! 3.04

Give the value of protein stability index reported for the following: RAQYDELARKNREELDKYWSQQIH [E24H] 3.72

Consider the variant RAQYEELARKNREELDKYWSQQIE [D5E] and give its recorded protein stability index. 2.86

Return protein stability index for the following variant: RAQYDELARKNRVELDKYWSQQIE [E13V] 2.07

Provide only the value of recorded protein stability index for RAQYDELARKNREELDKYWMQQIE [S20M] 2.56

Specify reported protein stability index for the variant shown: REQYDELARKNREELDKYWSQQIE [A2E] 3.34

Specify measured protein stability index for RAQYDELARKNREELDKYKSQQIE [W19K] . 4.41

Query protein stability index for RAQYDELARKNREELGKYWSQQIE [D16G] 2.03

Quick one: give measured protein stability index for RAQYDELARKNREELDKYWSQQEE [I23E] 5.1
